- assayedSystem: [V390I/Y410E/E274V]-CfEcR (Choristoneura fumiferana, UniProt O77240)
- Construct: assay construct b835
- Format: cell-based
- conditions: R, 3T3 Cells, relative to GS-E ligand

{"cpdSmiles": "CCC[C@@H](N(NC(=O)c1ccc(Cl)cc1)C(=O)c1cc(C)cc(C)c1)C(C)(C)C", "assayedSystem": "[V390I/Y410E/E274V]-CfEcR (Choristoneura fumiferana, UniProt O77240)", "RMFI (relative maximum fold induction)": 0.74}
{"cpdSmiles": "CCC[C@@H](N(NC(=O)c1ccc(OC)c(OC)c1)C(=O)c1cc(C)cc(C)c1)C(C)(C)C", "assayedSystem": "[V390I/Y410E/E274V]-CfEcR (Choristoneura fumiferana, UniProt O77240)", "RMFI (relative maximum fold induction)": 0.53}
{"cpdSmiles": "CCC[C@@H](N(NC(=O)c1c(F)cccc1F)C(=O)c1cc(C)cc(C)c1)C(C)(C)C", "assayedSystem": "[V390I/Y410E/E274V]-CfEcR (Choristoneura fumiferana, UniProt O77240)", "RMFI (relative maximum fold induction)": 0.79}
{"cpdSmiles": "Cc1cc(C)cc(C(=O)N(NC(=O)OCc2ccccc2)[C@H](CCCO)C(C)(C)C)c1", "assayedSystem": "[V390I/Y410E/E274V]-CfEcR (Choristoneura fumiferana, UniProt O77240)", "RMFI (relative maximum fold induction)": 0.33}
